Target: HER2 receptor (Homo sapiens, UniProt P04626)
Construct: Recombinant purified HER2 receptor composed of the ectodomain of HER2 fused to the Fc of human IgG; purchased Xcyte Therapeutics, Seattle, Wash; (provided by Dr. Che Law; a gift, not a catalogue product)
Sequence (P04626 23-652 limits assumed): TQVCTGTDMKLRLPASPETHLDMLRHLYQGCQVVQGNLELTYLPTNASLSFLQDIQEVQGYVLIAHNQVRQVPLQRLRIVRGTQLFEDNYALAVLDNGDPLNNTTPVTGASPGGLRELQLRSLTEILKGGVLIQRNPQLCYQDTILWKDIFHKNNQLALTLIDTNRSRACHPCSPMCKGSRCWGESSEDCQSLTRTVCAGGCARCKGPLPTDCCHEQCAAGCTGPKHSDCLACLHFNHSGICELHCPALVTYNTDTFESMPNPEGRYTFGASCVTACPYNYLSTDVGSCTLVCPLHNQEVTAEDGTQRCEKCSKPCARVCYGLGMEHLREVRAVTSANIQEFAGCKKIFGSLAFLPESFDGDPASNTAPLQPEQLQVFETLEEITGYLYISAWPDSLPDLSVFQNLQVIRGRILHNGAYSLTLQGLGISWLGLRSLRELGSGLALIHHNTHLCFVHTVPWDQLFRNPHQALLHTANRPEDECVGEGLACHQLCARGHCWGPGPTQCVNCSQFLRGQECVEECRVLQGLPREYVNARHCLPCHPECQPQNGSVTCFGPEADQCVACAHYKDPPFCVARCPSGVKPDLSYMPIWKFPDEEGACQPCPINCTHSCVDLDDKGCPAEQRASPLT
Assay: Biacore (surface plasmon resonance) binding of peptides to immobilized HER2
Details: Biacore, immobilized HER2, 25° C.; read-out: binding to HER2 kon
Positions of bridges follow the written chain, without caps; N, C: chain ends. Residues, ends and D or L forms follow the SMILES beside them.
List of kon values.
Numeric only. Scale: M⁻¹ s⁻¹

Before answering, review these 3 worked examples.
compound	kon / M⁻¹ s⁻¹
CSCC[C@H](NC(=O)[C@H](Cc1ccc(O)cc1)NC(=O)[C@@H]1CSSC[C@H](NC(=O)[C@@H](N)Cc2ccccc2)C(=O)NCC(=O)N[C@@H](CC(=O)O)C(=O)NCC(=O)N[C@@H](Cc2ccccc2)C(=O)N[C@@H](Cc2ccc(O)cc2)C(=O)N[C@@H](C)C(=O)N1)C(=O)N[C@@H](CC(=O)O)C(=O)N[C@H](C(=O)O)C(C)C [Peptide 8] (H-FCGDGFYACYMDV-OH; disulfide 2-9; N-terminus assumed)	922
CSCC[C@H](NC(=O)[C@H](Cc1ccc(O)cc1)NC(=O)[C@@H]1CSSC[C@H](NC(=O)[C@@H](N)Cc2ccc(O)cc2)C(=O)N[C@@H](CC(=O)O)C(=O)NCC(=O)N[C@@H](Cc2ccccc2)C(=O)N[C@@H](Cc2ccc(O)cc2)C(=O)N[C@@H](C)C(=O)N1)C(=O)N[C@@H](CC(=O)O)C(=O)N[C@H](C(N)=O)C(C)C [Peptide 3] (H-YCDGFYACYMDV-NH2; disulfide 2-8; N-terminus assumed)	1960
CSCC[C@H](NC(=O)[C@H](Cc1ccc(O)cc1)NC(=O)[C@@H]1CSSC[C@H](NC(=O)[C@H](Cc2ccccc2)NC(=O)CN)C(=O)N[C@@H](CC(=O)O)C(=O)NCC(=O)N[C@@H](Cc2ccccc2)C(=O)N[C@@H](Cc2ccc(O)cc2)C(=O)N[C@@H](C)C(=O)N1)C(=O)N[C@@H](CC(=O)O)C(=O)N[C@H](C(=O)O)C(C)C [Peptide 7] (H-GFCDGFYACYMDV-OH; disulfide 3-9)	1110

In the following, a different compound is considered.
The compound listed as CSCC[C@H](NC(=O)[C@@H](Cc1ccc(O)cc1)NC(=O)[C@@H]1CSSC[C@H](NC(=O)[C@H](N)Cc2ccccc2)C(=O)N[C@@H](CC(=O)O)C(=O)NCC(=O)N[C@@H](Cc2ccccc2)C(=O)N[C@@H](Cc2ccc(O)cc2)C(=O)N[C@@H](C)C(=O)N1)C(=O)N[C@@H](CC(=O)O)C(=O)N[C@H](C(N)=O)C(C)C [Peptide 4] shows kon equal to 1720

----------
Target: HER2 receptor (Homo sapiens)
Construct: Recombinant purified HER2 receptor composed of the ectodomain of HER2 fused to the Fc of human IgG; purchased Xcyte Therapeutics, Seattle, Wash; (provided by Dr. Che Law; a gift, not a catalogue product)
Experiment: Biacore (surface plasmon resonance) binding of peptides to immobilized HER2
Conditions: Biacore, immobilized HER2, 25° C.; read-out: binding to HER2 KD
Positions of bridges follow the written chain, without caps; N, C: chain ends. Residues, ends and D or L forms follow the SMILES beside them.
endpoint.label: Kd (nM)
Numeric only. Scale: nM

Before answering, review these 5 worked examples.
compound	unit.annotation	assay.value
CC(C)[C@H](NC(=O)[C@H](CC(=O)O)NC(=O)[C@H](CCCCN)NC(=O)[C@H](Cc1ccc(O)cc1)NC(=O)[C@@H]1CSSC[C@H](NC(=O)[C@@H](N)Cc2ccccc2)C(=O)N[C@@H](CC(=O)O)C(=O)NCC(=O)N[C@@H](Cc2ccccc2)C(=O)N[C@@H](Cc2ccc(O)cc2)C(=O)N[C@@H](C)C(=O)N1)C(=O)O [Peptide 6] (H-FCDGFYACYKDV-OH; disulfide 2-8; N-terminus assumed)	nM	5700
CSCC[C@H](NC(=O)[C@H](Cc1ccc(O)cc1)NC(=O)[C@@H]1CSSC[C@H](NC(=O)[C@H](Cc2ccccc2)NC(=O)CN)C(=O)N[C@@H](CC(=O)O)C(=O)NCC(=O)N[C@@H](Cc2ccccc2)C(=O)N[C@@H](Cc2ccc(O)cc2)C(=O)N[C@@H](C)C(=O)N1)C(=O)N[C@@H](CC(=O)O)C(=O)N[C@H](C(=O)O)C(C)C [Peptide 7] (H-GFCDGFYACYMDV-OH; disulfide 3-9)	nM	730
CSCC[C@H](NC(=O)[C@H](Cc1ccc(O)cc1)NC(=O)[C@@H]1CSSC[C@H](NC(=O)[C@@H](N)Cc2ccccc2)C(=O)N[C@@H](CC(=O)O)C(=O)NCC(=O)N[C@@H](Cc2ccccc2)C(=O)N[C@@H](Cc2ccc(O)cc2)C(=O)N[C@@H](C)C(=O)N1)C(=O)N[C@@H](CC(=O)O)C(=O)N[C@H](C(=O)N[C@@H](CCCCN)C(N)=O)C(C)C [Peptide 5] (H-FCDGFYACYMDVK-NH2; disulfide 2-8)	nM	830
CSCC[C@H](NC(=O)[C@H](Cc1ccc(O)cc1)NC(=O)[C@@H]1CSSC[C@H](NC(=O)[C@@H](N)Cc2ccccc2)C(=O)N[C@@H](CC(=O)O)C(=O)NCC(=O)N[C@@H](Cc2ccccc2)C(=O)N[C@@H](Cc2ccc(O)cc2)C(=O)N[C@@H](C)C(=O)N1)C(=O)N[C@@H](CC(=O)O)C(=O)N[C@H](C(N)=O)C(C)C [Peptide 1]	nM	320
CSCC[C@H](NC(=O)[C@@H](Cc1ccc(O)cc1)NC(=O)[C@@H]1CSSC[C@H](NC(=O)[C@H](N)Cc2ccccc2)C(=O)N[C@@H](CC(=O)O)C(=O)NCC(=O)N[C@@H](Cc2ccccc2)C(=O)N[C@@H](Cc2ccc(O)cc2)C(=O)N[C@@H](C)C(=O)N1)C(=O)N[C@@H](CC(=O)O)C(=O)N[C@H](C(N)=O)C(C)C [Peptide 4]	nM	350

The compound listed as CSCC[C@H](NC(=O)[C@H](Cc1ccc(O)cc1)NC(=O)[C@@H]1CSSC[C@H](NC(=O)[C@@H](N)Cc2ccccc2)C(=O)N[C@@H](CC(=O)O)C(=O)NCC(=O)N[C@@H](Cc2ccccc2)C(=O)N[C@@H](Cc2ccc(O)cc2)C(=O)N[C@@H](C)C(=O)N1)C(=O)N[C@@H](CC(=O)O)C(=O)N[C@H](C(=O)O)C(C)C [Peptide 2] shows Kd equal to 650

// provenance: patent US7998924B2
